# Test target: MAP kinase-activated protein kinase 2 (Homo sapiens, UniProt P49137); also: in the data inactive means no Kd found up to 30 µM
# Sequence (P49137 whole entry): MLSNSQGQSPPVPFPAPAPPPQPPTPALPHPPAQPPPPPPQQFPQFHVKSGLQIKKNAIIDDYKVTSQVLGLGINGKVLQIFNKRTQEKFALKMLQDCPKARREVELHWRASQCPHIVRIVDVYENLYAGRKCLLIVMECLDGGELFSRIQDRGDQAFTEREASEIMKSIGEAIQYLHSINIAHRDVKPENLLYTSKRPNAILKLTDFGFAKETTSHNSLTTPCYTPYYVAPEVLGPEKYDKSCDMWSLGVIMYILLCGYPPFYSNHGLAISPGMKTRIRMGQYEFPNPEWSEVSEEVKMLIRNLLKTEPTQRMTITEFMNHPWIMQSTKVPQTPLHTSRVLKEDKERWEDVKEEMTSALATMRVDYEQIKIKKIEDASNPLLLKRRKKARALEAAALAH
The source made the active and inactive calls.
Below, each entry is listed with its recorded Kd.

Example compounds with recorded Kd:
smiles_repr=COc1ccc(S(=O)(=O)N(C(C)=O)c2ccccc2/C=C/c2cc[n+]([O-])cc2)cc1 test_target="MAP kinase-activated protein kinase 2 (Homo sapiens, UniProt P49137)" endpoint=Kd value_observed="> 30 µM (inactive)"
smiles_repr=CCS(=O)(=O)c1cccc(-c2cc(C(=O)NC3CCN(C)CC3)c(C)c3[nH]c4ncc(C)cc4c23)c1 test_target="MAP kinase-activated protein kinase 2 (Homo sapiens, UniProt P49137)" endpoint=Kd value_observed="> 30 µM (inactive)"
smiles_repr=Cc1nc2cc(-n3ncc(C(=O)c4cc5ccccc5[nH]4)c3N)ccc2[nH]1 test_target="MAP kinase-activated protein kinase 2 (Homo sapiens, UniProt P49137)" endpoint=Kd value_observed="0.018 µM"

// switching to the query compound
## Input Form field: reported Kd of "C[C@@H](NC(=O)c1ncnc(N)c1Cl)c1ncc(C(=O)Nc2cc(C(F)(F)F)c(Cl)cn2)s1"
## Output > 30 µM (inactive)

----------
# Test target: Protein kinase C alpha type (Homo sapiens, UniProt P17252); also: in the data inactive means no Kd found up to 30 µM
Activity calls are given as the source filed them.
Give one outcome, nothing more. List: active, inactive

Please review the entries below; each comes with its answer.
molecule=COCC(=O)NC/C=C/c1ccc2ncnc(Nc3ccc(Oc4ccc(C)nc4)c(C)c3)c2c1 class_assignment=inactive
molecule=Cn1cnc2c(F)c(Nc3ccc(Br)cc3F)c(C(=O)NOCCO)cc21 class_assignment=inactive
molecule=Cc1cc(C(=O)NOCCO)c(Nc2ccc(I)cc2F)n(C)c1=O class_assignment=inactive

## Input What was the test verdict on "CNC(=O)c1nn(C)c2c1C(C)(C)Cc1cnc(Nc3ccc(N4CCN(C)CC4)cc3)nc1-2" ?
## Output inactive

----------
# Test target: Mitogen-activated protein kinase 8 (Homo sapiens, UniProt P45983); also: in the data inactive means no Kd found up to 30 µM
# Sequence (P45983 whole entry): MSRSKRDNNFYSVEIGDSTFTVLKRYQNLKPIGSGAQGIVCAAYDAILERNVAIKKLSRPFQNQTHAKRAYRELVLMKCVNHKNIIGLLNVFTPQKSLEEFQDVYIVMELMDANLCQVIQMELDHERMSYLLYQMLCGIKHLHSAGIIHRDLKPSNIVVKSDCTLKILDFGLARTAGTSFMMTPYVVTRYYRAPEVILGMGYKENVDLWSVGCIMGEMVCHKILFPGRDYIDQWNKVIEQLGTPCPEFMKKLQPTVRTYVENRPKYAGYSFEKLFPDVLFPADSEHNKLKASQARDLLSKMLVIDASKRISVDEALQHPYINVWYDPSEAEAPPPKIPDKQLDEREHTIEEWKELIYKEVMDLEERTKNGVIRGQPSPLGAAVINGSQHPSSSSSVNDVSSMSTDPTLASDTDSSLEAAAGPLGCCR
The source made the active and inactive calls.
Give one outcome, nothing more. List: 1 for active, -1 for inactive

Please review the entries below; each comes with its answer.
compound="Cc1nc2cc(-n3ncc(C(=O)c4cc5ccccc5[nH]4)c3N)ccc2[nH]1 [FGFR INHIBITOR DEBIO 1347]" test_target="Mitogen-activated protein kinase 8 (Homo sapiens, UniProt P45983)" class_assignment=-1
compound="Cn1cc(-c2cnc3ccc4ccc(CS(=O)(=O)NCc5ccccn5)cc4c(=O)c3c2)cn1 [MK-8033]" test_target="Mitogen-activated protein kinase 8 (Homo sapiens, UniProt P45983)" class_assignment=-1

Continue with the next compound.
## Input What was the test verdict on CN1C/C=C/CCOc2cccc(c2)-c2ccnc(n2)Nc2cccc(c2)C1 [ZOTIRACICLIB] ?
## Output 1

----------
Active and inactive are the calls of the source.
Entries below carry reported Kd on Mitogen-activated protein kinase 1 (Homo sapiens).
Sequence (P28482 whole entry): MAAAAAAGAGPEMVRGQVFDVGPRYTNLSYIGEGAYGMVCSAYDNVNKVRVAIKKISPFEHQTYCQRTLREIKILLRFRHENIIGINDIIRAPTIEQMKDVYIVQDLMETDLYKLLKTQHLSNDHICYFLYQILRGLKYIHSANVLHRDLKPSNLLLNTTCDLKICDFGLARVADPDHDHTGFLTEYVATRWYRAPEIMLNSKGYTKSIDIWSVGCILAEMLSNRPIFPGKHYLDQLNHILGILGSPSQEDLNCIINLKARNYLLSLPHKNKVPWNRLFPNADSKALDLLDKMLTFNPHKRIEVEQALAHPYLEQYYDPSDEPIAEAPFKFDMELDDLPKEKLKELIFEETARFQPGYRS

Example molecules with recorded Kd:
molecule="CN1C/C=C/CCOc2cccc(c2)-c2ccnc(n2)Nc2cccc(c2)C1 [ZOTIRACICLIB]" endpoint=Kd value_observed="> 30 µM (inactive)"
molecule="CO[C@H]1C[C@@H]2CC[C@@H](C)[C@@](O)(O2)C(=O)C(=O)N2CCCC[C@H]2C(=O)O[C@H]([C@H](C)C[C@@H]2CC[C@@H](OC(=O)C(C)(CO)CO)[C@H](OC)C2)CC(=O)[C@H](C)/C=C(\\C)[C@@H](O)[C@@H](OC)C(=O)[C@H](C)C[C@H](C)/C=C/C=C/C=C/1C [TEMSIROLIMUS]" endpoint=Kd value_observed="> 30 µM (inactive)"

## Input What Kd appears in the records for this molecule with Mitogen-activated protein kinase 1 (Homo sapiens)? CN(C[C@@H]1COCCO1)S(=O)(=O)Nc1ccc2ccc3ncc(-c4cnn(C)c4)cc3c(=O)c2c1 [MK-2461]
## Output > 30 µM (inactive)

----------
Activity calls are given as the source filed them.
Entries below carry reported Kd on Epidermal growth factor receptor (Homo sapiens, UniProt P00533).
Sequence (P00533 whole entry): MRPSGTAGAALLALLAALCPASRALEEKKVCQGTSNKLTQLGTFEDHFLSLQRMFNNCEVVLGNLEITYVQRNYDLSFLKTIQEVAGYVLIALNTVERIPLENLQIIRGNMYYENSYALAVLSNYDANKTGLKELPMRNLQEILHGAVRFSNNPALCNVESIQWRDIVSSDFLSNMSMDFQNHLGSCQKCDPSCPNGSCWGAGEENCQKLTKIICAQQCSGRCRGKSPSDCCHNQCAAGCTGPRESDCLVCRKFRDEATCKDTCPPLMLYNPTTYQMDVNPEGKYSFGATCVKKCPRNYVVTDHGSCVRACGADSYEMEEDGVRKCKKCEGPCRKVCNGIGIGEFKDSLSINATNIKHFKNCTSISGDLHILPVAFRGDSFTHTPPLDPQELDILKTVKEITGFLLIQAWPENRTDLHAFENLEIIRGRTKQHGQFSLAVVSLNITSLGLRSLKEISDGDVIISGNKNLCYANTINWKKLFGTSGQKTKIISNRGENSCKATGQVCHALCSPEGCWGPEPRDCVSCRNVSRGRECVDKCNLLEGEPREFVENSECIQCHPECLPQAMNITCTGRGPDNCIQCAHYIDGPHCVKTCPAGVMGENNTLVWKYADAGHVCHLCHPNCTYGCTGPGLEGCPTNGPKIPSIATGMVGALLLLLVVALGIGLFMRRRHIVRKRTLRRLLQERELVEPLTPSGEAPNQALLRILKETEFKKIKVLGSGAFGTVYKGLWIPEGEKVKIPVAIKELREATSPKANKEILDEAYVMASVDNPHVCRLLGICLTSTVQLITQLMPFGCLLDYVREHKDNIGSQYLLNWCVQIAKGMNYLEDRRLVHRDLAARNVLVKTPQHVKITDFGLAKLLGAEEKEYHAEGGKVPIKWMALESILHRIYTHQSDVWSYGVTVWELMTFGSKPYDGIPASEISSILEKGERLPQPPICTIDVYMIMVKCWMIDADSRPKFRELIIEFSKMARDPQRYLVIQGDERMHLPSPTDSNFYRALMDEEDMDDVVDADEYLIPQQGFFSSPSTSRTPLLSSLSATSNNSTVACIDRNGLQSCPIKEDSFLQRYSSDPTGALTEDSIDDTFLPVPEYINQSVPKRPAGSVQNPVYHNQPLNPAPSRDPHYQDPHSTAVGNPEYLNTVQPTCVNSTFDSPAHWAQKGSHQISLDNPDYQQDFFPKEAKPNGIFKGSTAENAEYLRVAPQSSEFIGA

molecule=COc1cc2c(Nc3ccc(Cl)c(Cl)c3F)ncnc2cc1OC[C@@H]1C[C@@H]2CN(C)C[C@@H]2C1 value_observed="0.038 µM (active)"

## Input Form field: reported Kd of "COc1ncc(-c2ccc3nccc(-c4ccnnc4)c3c2)cc1NS(=O)(=O)c1ccc(F)cc1F"
## Output > 30 µM (inactive)

## Input "C=CC(=O)N1CCC[C@H](n2c(=O)n(-c3ccc(Oc4ccccc4)cc3)c3c(N)ncnc32)C1" , same question.
## Output 0.019 µM (active)

## Input "CC(=O)c1cnc2ccc(-c3cc(Cl)c(O)c(Cl)c3)nc2c1N[C@H]1CC[C@H](CN(C)C)CC1" , same question.
## Output > 30 µM (inactive)

## Input O=c1[nH]ccc2cc(OC3CCNCC3)ccc12 [SAR-407899 FREE BASE] , same question.
## Output > 30 µM (inactive)

## Input "FC(F)(F)c1ccc(/C=C/c2nc(COc3ccc(CCCCn4ccnn4)cc3)co2)cc1" , same question.
## Output > 30 µM (inactive)

## Input "C[C@@H](NC(=O)c1ncnc(N)c1Cl)c1ncc(C(=O)Nc2cc(C(F)(F)F)c(Cl)cn2)s1" , same question.
## Output > 30 µM (inactive)

## Input "C[C@@H](Oc1cc(C(=O)Nc2ccc(C(=O)N3CCN(C)CC3)cc2)nnc1N)c1c(Cl)ccc(F)c1Cl" , same question.
## Output > 30 µM (inactive)

----------
# Test target: Glycine--tRNA ligase (Homo sapiens, UniProt P41250); also: in the data inactive means no Kd found up to 30 µM
# Sequence (P41250 whole entry): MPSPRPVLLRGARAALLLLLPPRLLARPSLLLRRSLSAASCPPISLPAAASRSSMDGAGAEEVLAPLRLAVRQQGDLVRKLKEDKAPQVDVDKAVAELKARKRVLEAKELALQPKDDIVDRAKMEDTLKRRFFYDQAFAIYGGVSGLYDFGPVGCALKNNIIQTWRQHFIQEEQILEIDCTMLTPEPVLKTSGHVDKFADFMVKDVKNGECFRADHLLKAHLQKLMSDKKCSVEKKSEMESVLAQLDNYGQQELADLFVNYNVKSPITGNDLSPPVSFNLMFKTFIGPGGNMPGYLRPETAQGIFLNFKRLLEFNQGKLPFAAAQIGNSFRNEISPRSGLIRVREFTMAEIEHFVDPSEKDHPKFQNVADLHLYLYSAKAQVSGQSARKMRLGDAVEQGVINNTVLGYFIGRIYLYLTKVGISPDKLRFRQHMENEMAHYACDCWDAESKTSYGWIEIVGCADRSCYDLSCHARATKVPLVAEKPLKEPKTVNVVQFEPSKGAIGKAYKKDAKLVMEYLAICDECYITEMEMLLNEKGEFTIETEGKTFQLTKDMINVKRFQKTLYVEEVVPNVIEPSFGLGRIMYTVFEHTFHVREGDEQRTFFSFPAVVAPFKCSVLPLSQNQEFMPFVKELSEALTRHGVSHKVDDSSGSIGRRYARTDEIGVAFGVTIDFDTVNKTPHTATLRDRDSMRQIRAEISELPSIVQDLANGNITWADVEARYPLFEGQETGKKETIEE
Calls of active or inactive are those of the source.
Below, each entry is listed with its recorded Kd.

Example compounds with recorded Kd:
compound=CC(C)(C)c1nc(-c2cccc(NS(=O)(=O)c3c(F)cccc3F)c2F)c(-c2ccnc(N)n2)s1 endpoint=Kd value_observed="> 30 µM (inactive)"
compound="C=CC(=O)Nc1cc2c(Nc3ccc(F)c(Cl)c3)ncnc2cc1C#CC(C)(C)N1CCN(C)CC1 [AV-412 FREE BASE]" endpoint=Kd value_observed="> 30 µM (inactive)"

## Input Form field: reported Kd of O=c1[nH]ccc2cc(OC3CCNCC3)ccc12 [SAR-407899 FREE BASE]
## Output > 30 µM (inactive)

## Input "O=C(Nc1cc(C(F)(F)F)cc(C(F)(F)F)c1)c1cc(Cl)ccc1O" , same question.
## Output > 30 µM (inactive)

## Input "CCNC(=O)C#Cc1ccc2c(c1)NC(=O)/C2=C(\Nc1ccc(CN(C)C)cc1)c1ccccc1" , same question.
## Output > 30 µM (inactive)

## Input "N#CC[C@H](C1CCCC1)n1cc(-c2ncnc3[nH]ccc23)cn1" , same question.
## Output > 30 µM (inactive)

## Input "CNC(=O)c1cccc2cc(Oc3ccnc4cc(OCC5(N)CC5)c(OC)cc34)ccc12" , same question.
## Output > 30 µM (inactive)

## Input "Cn1cc(C2=C(c3cn(C4CCN(Cc5ccccn5)CC4)c4ccccc34)C(=O)NC2=O)c2ccccc21" , same question.
## Output > 30 µM (inactive)

## Input "CO[C@H]1C[C@@H]2CC[C@@H](C)[C@@](O)(O2)C(=O)C(=O)N2CCCC[C@H]2C(=O)O[C@H]([C@H](C)C[C@@H]2CC[C@@H](O)[C@H](OC)C2)CC(=O)[C@H](C)/C=C(\C)[C@@H](O)[C@@H](OC)C(=O)[C@H](C)C[C@H](C)/C=C/C=C/C=C/1C" , same question.
## Output > 30 µM (inactive)

## Input "NC(=O)c1c(OCc2c(F)cc(Br)cc2F)nsc1NC(=O)NCCCCN1CCCC1" , same question.
## Output > 30 µM (inactive)

Value source: ChEMBL document CHEMBL3991601
